Quick list: pEC50 per entry.
system_name: human TAAR1 receptors (Homo sapiens)
Sequence (Q96RJ0 whole entry): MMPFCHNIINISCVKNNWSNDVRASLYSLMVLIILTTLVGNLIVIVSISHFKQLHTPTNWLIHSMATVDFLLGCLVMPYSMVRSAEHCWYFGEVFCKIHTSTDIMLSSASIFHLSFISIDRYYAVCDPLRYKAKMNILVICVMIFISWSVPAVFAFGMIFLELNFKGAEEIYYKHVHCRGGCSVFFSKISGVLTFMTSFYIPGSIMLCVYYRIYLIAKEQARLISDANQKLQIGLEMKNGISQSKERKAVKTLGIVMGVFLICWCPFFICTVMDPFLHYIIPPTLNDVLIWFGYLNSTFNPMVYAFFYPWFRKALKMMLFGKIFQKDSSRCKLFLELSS
assay_method_text: TAAR1 Agonism Assay: cAMP HTRF assay for Gs coupled receptor TAAR1 (Euroscreen FAST-0987C)
condition_notes: CHO-K1 cells expressing human TAAR1, cAMP HTRF
pEC50: −log10 of the molar value.
endpoint_name: pEC50

[[record]]
compound = "C[C@@H]1c2ccccc2Oc2cccnc2[C@H]1CN (stereo in doubt)"
reported_value = "> 6.00"

[[record]]
compound = "NCC1Oc2ccccc2Oc2ccncc21 (single isomer, unassigned) [Compound 54]"
reported_value = "5.00 to 6.00"

[[record]]
compound = "CNCC1Cc2c(C)cccc2Oc2cccnc21 (single isomer, unassigned) [Compound 142]"
reported_value = "5.00 to 6.00"

[[record]]
compound = "C[C@H]1c2ccccc2Oc2cccnc2[C@H]1CN (stereo in doubt)"
reported_value = "< 5.00"

[[record]]
compound = "NCC1Cc2ncccc2Oc2ccc(F)cc21 (single isomer, unassigned) [Compound 164]"
reported_value = "> 6.00"

[[record]]
compound = "CNCC1Cc2ncccc2Oc2cccc(F)c21 (single isomer, unassigned) [Compound 158]"
reported_value = "5.00 to 6.00"

[[record]]
compound = "CNCC1Cc2ncccc2Oc2ccc(Cl)cc21 (single isomer, unassigned) [Compound 169]"
reported_value = "< 5.00"

[[record]]
compound = "NCC1Cc2ccc(F)cc2Oc2ccccc21 (single isomer, unassigned) [Compound 88]"
reported_value = "5.00 to 6.00"


---

system_name: human TAAR1 receptors (Homo sapiens)
assay_method_text: TAAR1 Agonism Assay: cAMP HTRF assay for Gs coupled receptor TAAR1 (Euroscreen FAST-0987C)
condition_notes: CHO-K1 cells expressing human TAAR1, cAMP HTRF
endpoint_name: EC50

[[record]]
compound = "CNCC1Cc2ncccc2Oc2ccccc21 (single isomer, unassigned) [Compound 31]"
system_name = "human TAAR1 receptors (Homo sapiens)"
reported_value = "> 10 µM"

[[record]]
compound = "NCC1Oc2ccc(F)cc2Oc2ccccc21 (single isomer, unassigned) [Compound 41]"
system_name = "human TAAR1 receptors (Homo sapiens)"
reported_value = "< 1 µM"

[[record]]
compound = "CNCC1Cc2cccc(F)c2Oc2ccccc21 (single isomer, unassigned) [Compound 86]"
system_name = "human TAAR1 receptors (Homo sapiens)"
reported_value = "< 1 µM"

[[record]]
compound = "CNCC1Oc2ccccc2Oc2ncccc21 (single isomer, unassigned) [Compound 46]"
system_name = "human TAAR1 receptors (Homo sapiens)"
reported_value = "1 to 10 µM"

[[record]]
compound = "CNCC1Cc2ccncc2Oc2ccccc21 (single isomer, unassigned) [Compound 23]"
system_name = "human TAAR1 receptors (Homo sapiens)"
reported_value = "< 1 µM"

[[record]]
compound = "CNC[C@H]1c2ncccc2Oc2ccccc2[C@H]1C (stereo in doubt)"
system_name = "human TAAR1 receptors (Homo sapiens)"
reported_value = "< 1 µM"

[[record]]
compound = "CNCC1Cc2cc(C)ccc2Oc2cccnc21 (single isomer, unassigned) [Compound 131]"
system_name = "human TAAR1 receptors (Homo sapiens)"
reported_value = "< 1 µM"

[[record]]
compound = "NCC1Cc2ccccc2Oc2c(F)cccc21 (single isomer, unassigned) [Compound 100]"
system_name = "human TAAR1 receptors (Homo sapiens)"
reported_value = "< 1 µM"

[[record]]
compound = "NCC1Cc2ncccc2Oc2cc(F)ccc21 (single isomer, unassigned) [Compound 35]"
system_name = "human TAAR1 receptors (Homo sapiens)"
reported_value = "1 to 10 µM"

[[record]]
compound = "NCC1Cc2ccccc2Oc2cccnc21 (single isomer, unassigned) [Compound 7]"
system_name = "human TAAR1 receptors (Homo sapiens)"
reported_value = "< 1 µM"

[[record]]
compound = "CNC[C@@H]1c2ncccc2Oc2ccccc2[C@@H]1C (stereo in doubt)"
system_name = "human TAAR1 receptors (Homo sapiens)"
reported_value = "> 10 µM"

[[record]]
compound = "Cc1ccc2c(c1)CC(CN)c1ncccc1O2 (single isomer, unassigned) [Compound 128]"
system_name = "human TAAR1 receptors (Homo sapiens)"
reported_value = "< 1 µM"

[[record]]
compound = "NCC1Cc2ncc(F)cc2Oc2ccccc21 (single isomer, unassigned) [Compound 39]"
system_name = "human TAAR1 receptors (Homo sapiens)"
reported_value = "1 to 10 µM"

[[record]]
compound = "NCC1Oc2ccc(F)cc2Oc2ccccc21 (single isomer, unassigned) [Compound 42]"
system_name = "human TAAR1 receptors (Homo sapiens)"
reported_value = "< 1 µM"

[[record]]
compound = "CNCC1Cc2ccc(Cl)cc2Oc2cccnc21 (single isomer, unassigned) [Compound 127]"
system_name = "human TAAR1 receptors (Homo sapiens)"
reported_value = "< 1 µM"

[[record]]
compound = "NCC1Cc2ncccc2Oc2c(F)cccc21 (single isomer, unassigned) [Compound 176]"
system_name = "human TAAR1 receptors (Homo sapiens)"
reported_value = "< 1 µM"

[[record]]
compound = "NCC1Cc2ncc(Cl)cc2Oc2ccccc21 (single isomer, unassigned) [Compound 179]"
system_name = "human TAAR1 receptors (Homo sapiens)"
reported_value = "1 to 10 µM"

[[record]]
compound = "NCC1Oc2ccccc2Oc2cnccc21 (single isomer, unassigned) [Compound 50]"
system_name = "human TAAR1 receptors (Homo sapiens)"
reported_value = "< 1 µM"

[[record]]
compound = "CNCC1Cc2c(F)cccc2Oc2cccnc21 (single isomer, unassigned) [Compound 139]"
system_name = "human TAAR1 receptors (Homo sapiens)"
reported_value = "1 to 10 µM"

[[record]]
compound = "CNCC1Cc2c(F)cccc2Oc2ccccc21 (single isomer, unassigned) [Compound 82]"
system_name = "human TAAR1 receptors (Homo sapiens)"
reported_value = "< 1 µM"

[[record]]
compound = "NCC1Cc2ccncc2Oc2ccccc21 (single isomer, unassigned) [Compound 22]"
system_name = "human TAAR1 receptors (Homo sapiens)"
reported_value = "1 to 10 µM"

[[record]]
compound = "NCC1Cc2cccc(F)c2Oc2ccccc21 (single isomer, unassigned) [Compound 84]"
system_name = "human TAAR1 receptors (Homo sapiens)"
reported_value = "< 1 µM"

[[record]]
compound = "CNCC1Cc2ccccc2Oc2ccc(F)cc21 (single isomer, unassigned) [Compound 95]"
system_name = "human TAAR1 receptors (Homo sapiens)"
reported_value = "1 to 10 µM"

[[record]]
compound = "C[C@@H]1c2ccccc2Oc2cccnc2[C@@H]1CN (stereo in doubt)"
system_name = "human TAAR1 receptors (Homo sapiens)"
reported_value = "< 1 µM"

[[record]]
compound = "CNC[C@@H]1Oc2ccccc2Oc2ccncc21 (single isomer, unassigned)"
system_name = "human TAAR1 receptors (Homo sapiens)"
reported_value = "> 10 µM"

[[record]]
compound = "Cc1ccc2c(c1)Oc1cccnc1C(CN)C2 (single isomer, unassigned) [Compound 133]"
system_name = "human TAAR1 receptors (Homo sapiens)"
reported_value = "< 1 µM"

[[record]]
compound = "CNCC1Cc2ncccc2Oc2cc(F)ccc21 (single isomer, unassigned) [Compound 33]"
system_name = "human TAAR1 receptors (Homo sapiens)"
reported_value = "> 10 µM"

[[record]]
compound = "NCC1Cc2ccccc2Oc2c(F)cccc21 (single isomer, unassigned) [Compound 101]"
system_name = "human TAAR1 receptors (Homo sapiens)"
reported_value = "< 1 µM"

[[record]]
compound = "CNCC1Cc2ccccc2Oc2cccc(F)c21 (single isomer, unassigned) [Compound 107]"
system_name = "human TAAR1 receptors (Homo sapiens)"
reported_value = "> 10 µM"

[[record]]
compound = "CNC[C@@H]1c2ncccc2Oc2ccccc2[C@H]1C (stereo in doubt)"
system_name = "human TAAR1 receptors (Homo sapiens)"
reported_value = "< 1 µM"

[[record]]
compound = "NCC1Oc2ccccc2Oc2ccncc21 (single isomer, unassigned) [Compound 53]"
system_name = "human TAAR1 receptors (Homo sapiens)"
reported_value = "1 to 10 µM"

[[record]]
compound = "NCC1Cc2ncc(F)cc2Oc2ccccc21 (single isomer, unassigned) [Compound 40]"
system_name = "human TAAR1 receptors (Homo sapiens)"
reported_value = "< 1 µM"

[[record]]
compound = "NCC1Cc2ccccc2Oc2cccc(F)c21 (single isomer, unassigned) [Compound 105]"
system_name = "human TAAR1 receptors (Homo sapiens)"
reported_value = "1 to 10 µM"


Reference for the values: patent US20240245658A1
